Data provenance: patent US6599938B1

target: MIF (Homo sapiens, UniProt P14174); assay: MIF dopachrome tautomerase assay; format: biochemical; conditions: MIF tautomerase activity, L-dopachrome methyl ester substrate; read-out: Inhibition (IC50)
Sequence (P14174 2-115 limits assumed): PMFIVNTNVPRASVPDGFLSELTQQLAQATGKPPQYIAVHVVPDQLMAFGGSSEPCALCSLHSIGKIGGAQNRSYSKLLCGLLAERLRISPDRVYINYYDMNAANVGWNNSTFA
pIC50: −log10 of the molar value.
QUANTITY MEASURED: pIC50

* COC(=O)CN=Cc1ccc(O)cc1 | < 4.00
